Source listed as paper PMC12136788.

- target_entity: T1, UNK ZnF1-3 (human, UniProt Q9C0B0 31-174)
- T1 sequence: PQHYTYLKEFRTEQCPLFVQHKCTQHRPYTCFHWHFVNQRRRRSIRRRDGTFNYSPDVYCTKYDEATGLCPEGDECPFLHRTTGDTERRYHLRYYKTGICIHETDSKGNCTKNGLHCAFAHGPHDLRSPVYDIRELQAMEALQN
- assay_explanation: nsRBNS (natural sequence RNA bind-n-seq); RBNS binding buffer (assumed for nsRBNS): 25 mM Tris pH 7.5, 150 mM KCl, 3 mM MgCl2, 0.01% Triton X-100, 500 ug/ml BSA, 20 U/ml SUPERase-In, 4 C; UNK is unkempt and MSI1 is Musashi-1; names of the RNAs are library labels; protein concentration not given here; high values mean tight binding
The full ranking holds about 24,000 sequences; the median of “enrichment r” is about 0.99, and the highest 2% start at about 3.7. This is one part of a sample in which the highest values are shown more often than they occur.
reported_endpoint: binding signal (enrichment R)
State the answer as a number, implicitly in enrichment R.

See these solved cases before continuing.
Request: Let me know recorded binding signal for chr15:98568902:98568903:-_ENSMUSG00000051853_ENSMUST00000053183|mus_hu|FALSE|FALSE (ssRNA) RNA: GGGAGUUCUACAGUCCGACGAUCGGCCAGGGAAAUGAAUACAUUUUUAAAUGAAAUAGAACCUCCAACACCCCCCCCACAACCACCACACACAAACACACCCACACCCAUAUACACACACACUCACACACACACACAGGCCUACAACAGAGGAUUGAGCAUCA , thanks.
Response: 3.59

Request: Let me know recorded binding signal for chr14:63839279:63839280:-_ENSG00000154001_ENST00000337537|hu_hu|FALSE|FALSE (ssRNA) RNA: GGGAGUUCUACAGUCCGACGAUCUUAAAAGGAAAAAAGGAAAACAAGGAAAAAAAACCACCCCAAACCCCAAAAAACUCUAAACACUUAAAAAUGCCAAUAACAUCCAUACAUCCCUUUCCCAUCCCACCCUCAUCCCCACAACAACAGAGGAUUGAGCAUCA , thanks.
Response: 4.18

Shift focus to the following entry.
Request: Let me know recorded binding signal for chr7:135832672:135832673:+_ENSMUSG00000042105_ENSMUST00000118605|mus_mus|FALSE|FALSE (ssRNA) RNA: GGGAGUUCUACAGUCCGACGAUCCACGCCAAAAAUUCCAUCACGACACAAUUUUUACACACACACCAAAAAACAAAAAAAACAAAAAAAAAAAAAAAAAACCCAAAAAACAAAAAACCCUACAGUGUCACUUCCAUCCUGCCUCAACAGAGGAUUGAGCAUCA , thanks.
Response: 11.5
